Test system: U2OS
Procedure Summary: Multiplex assay against U2OS
Assay type: toxicity, cell-based
Condition Parameters: human, 24 h, 10 µM, compound concentration 10 uM, replicate 2
Would you mind sorting the entries by Population Membrane Permeable-Phenotype (%) according to these classes? range A (below 7%), range B (7% to below 60%), range C (60% or more)

[
  {
    "Compound": "O=c1cc(N2CCOCC2)oc2c(-c3cccc4c3sc3ccccc34)cccc12",
    "Group Label": "range B"
  },
  {
    "Compound": "CC(C)(C)NC[C@H](O)COc1nsnc1N1CCOCC1 [TIMOLOL]",
    "Group Label": "range A"
  },
  {
    "Compound": "CN1CCN(Cc2ccc(Nc3ncc(Cl)c(Nc4ccccc4S(=O)(=O)N(C)C)n3)cc2)CC1 [DUBERMATINIB]",
    "Group Label": "range B"
  },
  {
    "Compound": "Cc1nc(N2CC[C@H](O)C2)ncc1-c1cc(C(F)(F)F)cc2[nH]ncc12",
    "Group Label": "range B"
  },
  {
    "Compound": "COc1ccccc1CN[C@H]1C2CCN(CC2)[C@H]1C(c1ccccc1)c1ccccc1 [CP-96345]",
    "Group Label": "range A"
  },
  {
    "Compound": "COc1ccc(-c2ccc3ncc4c(c3c2)n(-c2ccc(N3CCNCC3)c(C(F)(F)F)c2)c(=O)n4C)cn1.O=C(O)/C=C\\C(=O)O [BGT-226]",
    "Group Label": "range C"
  },
  {
    "Compound": "Cc1ccc2c(c1)c1c(n2CCc2ccc(C)nc2)CCN(C)C1 [LATREPIRDINE]",
    "Group Label": "range B"
  },
  {
    "Compound": "Cc1cccc(CN2CCN(C(c3ccccc3)c3ccc(Cl)cc3)CC2)c1.Cl.Cl (stereo unspecified)",
    "Group Label": "range A"
  },
  {
    "Compound": "CCc1nn(CCCN2CCN(c3cccc(Cl)c3)CC2)c(=O)n1CCOc1ccccc1.Cl [NEFAZODONE HYDROCHLORIDE]",
    "Group Label": "range C"
  }
]

* * *

Test system: Fibroblast
Procedure Summary: Multiplex assay against human fibroblast
Assay type: toxicity, cell-based
Condition Parameters: 24 h, 1 µM, compound concentration 1 uM, replicate 1
Measured Population Tubulin-Different-Phenotype (%) of individual entries
Result Type: Population Tubulin-Different-Phenotype (%)

[
  {
    "Compound": "CC(C)Oc1ccccc1C(=O)Nc1ccccc1C(=O)Nc1cccc(S(=O)(=O)C(F)(F)F)c1",
    "Measured": 65
  },
  {
    "Compound": "COc1cc(Nc2nccc(-c3cnn4nc(OC)ccc34)n2)cc(C(F)(F)F)c1",
    "Measured": 32
  },
  {
    "Compound": "CC(C)(C)NC[C@H](O)COc1nsnc1N1CCOCC1 [TIMOLOL]",
    "Measured": 30
  },
  {
    "Compound": "CC(C)c1noc(N2CCC(COc3ccc(-c4ccc(S(C)(=O)=O)cc4)nc3)CC2)n1 [GSK-1292263]",
    "Measured": 75
  },
  {
    "Compound": "C=CC(=O)Nc1cccc(Sc2nc(Nc3ccc(N4CCN(C)CC4)cc3)ncc2Cl)c1",
    "Measured": 71
  },
  {
    "Compound": "CC1=C(C(=O)Nc2cc3cn[nH]c3cc2F)C(c2ccc(C(F)(F)F)cc2)CC(=O)N1 (configuration not stated)",
    "Measured": 25
  },
  {
    "Compound": "Cc1nc(N2CC[C@H](O)C2)ncc1-c1cc(C(F)(F)F)cc2[nH]ncc12",
    "Measured": 12
  },
  {
    "Compound": "Cc1cccc(CN2CCN(C(c3ccccc3)c3ccc(Cl)cc3)CC2)c1.Cl.Cl (configuration not stated)",
    "Measured": 40
  },
  {
    "Compound": "O=c1cc(N2CCOCC2)oc2c(-c3cccc4c3sc3ccccc34)cccc12",
    "Measured": 39
  },
  {
    "Compound": "C=CC(=O)Nc1cccc(Oc2nc(Nc3ccc(N4CCN(C)CC4)cc3OC)ncc2Cl)c1",
    "Measured": 38
  },
  {
    "Compound": "CCOC(=O)Nc1cc(-c2ccc(C)c(NS(C)(=O)=O)c2)nn2c(C)nnc12",
    "Measured": 2
  },
  {
    "Compound": "C=CC(=O)Nc1ccc2[nH]c(=O)n(C3CCN(Cc4ccc(-c5nc6cc[nH]c(=O)c6cc5-c5ccccc5)cc4)CC3)c2c1 [Borussertib]",
    "Measured": 6
  },
  {
    "Compound": "CCc1ccc(OCc2ccccc2C(=O)Nc2ccc3nc(C)cc(N)c3c2)cc1.Cl",
    "Measured": 86
  },
  {
    "Compound": "CCCSc1nc(N[C@@H]2C[C@H]2c2ccc(F)c(F)c2)c2nnn([C@@H]3C[C@H](OCCO)[C@@H](O)[C@H]3O)c2n1 [TICAGRELOR]",
    "Measured": 50
  },
  {
    "Compound": "C[C@]12CC[C@@H]3c4ccc(O)cc4CC[C@H]3[C@@H]1CC[C@@H]2O [ESTRADIOL]",
    "Measured": 43
  },
  {
    "Compound": "COC(=O)C1=C(C)NC(C)=C(C(=O)OCCCN2CCC(c3ccccc3)(c3ccccc3)CC2)[C@H]1c1cccc([N+](=O)[O-])c1 [NIGULDIPINE]",
    "Measured": 90
  },
  {
    "Compound": "Cl.O=C(O)c1cc(-c2ccc(C3CCNCC3)cc2)c2ccc(-c3ccc(C(F)(F)F)cc3)cc2c1",
    "Measured": 44
  }
]
